B1: Azoarcus group I ribozyme (parent)
chain: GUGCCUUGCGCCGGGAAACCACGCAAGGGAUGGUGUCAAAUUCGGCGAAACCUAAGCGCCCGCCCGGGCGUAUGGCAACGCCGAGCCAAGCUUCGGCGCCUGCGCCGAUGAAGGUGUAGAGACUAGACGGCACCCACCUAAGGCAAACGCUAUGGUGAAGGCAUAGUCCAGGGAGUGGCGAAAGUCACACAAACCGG

Variants of: B1
Test: reverse-splicing fitness (ratio to wild type); higher = more active; in vitro selection; Mg2+ level not given
Reported property: reverse-splicing fitness

C82G A120C C169U U176A    0.019
A145U C150G U176A    0.326
A111C A120U A145G C150U U176A    0.184
C82A A111G A120C A145C U176A    0.0165
C82A A111U A120G A145U C150U U176A    0.0102
C82A A111C A120U A145U C150U C169A U176C    0.00305
C82U A111G A120C C150G C169A    0.0083
C82A A111G A120G C150G C169U    0.00856
C82U A111G A145C C169U U176G    0.00386
C82A A111G A120U A145U C150G U176G    0.0023
C82G C150A C169A U176A    0.0213
C82G A111C A120U A145G C150U C169A U176C    0.00436
A111C A145C C169G U176C    0.0318
C82G A111G A120U A145C C150A U176C    0.00344
A111U A120C A145G    0.569
C82A A111U A120C A145U C150U C169U U176A    0.0157
C82G A111G C150G C169A    0.00975
C82U A111C A120C A145U C150A C169A    0.00776
C82U A111G A120G C169G U176C    0.0247
C82A A111G A120U C150U U176G    0.00388
A111G A120G A145G C150U U176C    0.0905
C82A A111U A120G A145G C150U C169A U176C    0.0165
